Test: HILIC, Waters ACQUITY UPLC BEH Amide, 100 × 2.1 mm, 1.7 µm; A: water + 0.125% formic acid + 10 mM ammonium formate; B: 5% water + 95% acetonitrile + 0.125% formic acid + 10 mM ammonium formate; gradient (min/%B) 0/100 2/100 7.7/70 9.5/40 10.25/30 12.75/100 17/100
Conditions: stereoisomer not certain

{"columns": ["COMPOUND", "LC retention time / min"],
 "data": [
  ["NC(=O)C=CC(=O)O [Maleamic acid]", 1.12],
  ["CCCCCCCCCCCCCCCC(=O)OC(CC(=O)[O-])C[N+](C)(C)C (stereo unspecified) [Palmitoylcarnitine cation]", 3.23],
  ["NC(Cc1ccc(O)cc1)C(=O)NC(Cc1ccc(O)cc1)C(=O)O (stereo unspecified) [Tyr-Tyr]", 7.38],
  ["Nc1nc2ccc(Cl)cc2c2nc(-c3ccco3)nn12", 1.07],
  ["OCC1OC(OCC2OC(O)C(O)C(O)C2O)C(O)C(O)C1O (stereo unspecified) [Isomaltose]", 7.19],
  ["NC(CSSCC(N)C(=O)O)C(=O)O (stereo unspecified) [Cystine]", 9.97]
]}

---

Here the recorded LC retention time is given for each entry.
Test: HILIC, Waters ACQUITY UPLC BEH Amide, 100 × 2.1 mm, 1.7 µm; A: water + 0.125% formic acid + 10 mM ammonium formate; B: 5% water + 95% acetonitrile + 0.125% formic acid + 10 mM ammonium formate; gradient (min/%B) 0/100 2/100 7.7/70 9.5/40 10.25/30 12.75/100 17/100
Details: stereoisomer not certain
PROPERTY: LC retention time (min)

{"columns": ["MOLECULE", "PROPERTY", "MEAS VALUE"],
 "data": [
  ["Nc1c2c(nc3ccccc13)CCCC2 [Tacrine]", "LC retention time", 3.86],
  ["Cc1ncc(COP(=O)(O)O)c(C=O)c1O [Pyridoxal-5-phosphate]", "LC retention time", 7.7],
  ["NC(Cc1ccc(O)c([N+](=O)[O-])c1)C(=O)O (stereo unspecified) [3-Nitrotyrosine]", "LC retention time", 6.88],
  ["CCOc1cc(N)c(Cl)cc1C(=O)NCC1CN(Cc2ccc(F)cc2)CCO1 (stereo unspecified) [Mosapride]", "LC retention time", 1.24],
  ["Nc1nc2ccc(OC(F)(F)F)cc2s1 [Riluzole]", "LC retention time", 1.03],
  ["CCC1(O)CC2CN(CCc3c([nH]c4ccccc34)C(C(=O)OC)(c3cc4c(cc3OC)N(C)C3C(O)(C(N)=O)C(O)C5(CC)C=CCN6CCC43C65)C2)C1 (stereo unspecified) [Vindesine]", "LC retention time", 5.76]
]}

---

Assay: HILIC, Waters ACQUITY UPLC BEH Amide, 100 × 2.1 mm, 1.7 µm; A: water + 0.125% formic acid + 10 mM ammonium formate; B: 5% water + 95% acetonitrile + 0.125% formic acid + 10 mM ammonium formate; gradient (min/%B) 0/100 2/100 7.7/70 9.5/40 10.25/30 12.75/100 17/100
Details: stereoisomer not certain

{"columns": ["COMPOUND", "LC retention time, min"],
 "data": [
  ["CC=C1C2C=C(C)CC1(N)c1ccc(=O)[nH]c1C2 (centres undefined)", 5.74],
  ["Cc1cc2c(s1)Nc1ccccc1N=C2N1CCN(C)CC1", 4.56],
  ["CN1C(=O)CCC1c1cccnc1 (centres undefined)", 1.49],
  ["NCCS", 2.05]
]}

---

Here the recorded LC retention time is given for each entry.
Assay: HILIC, Waters ACQUITY UPLC BEH Amide, 100 × 2.1 mm, 1.7 µm; A: water + 0.125% formic acid + 10 mM ammonium formate; B: 5% water + 95% acetonitrile + 0.125% formic acid + 10 mM ammonium formate; gradient (min/%B) 0/100 2/100 7.7/70 9.5/40 10.25/30 12.75/100 17/100
Details: stereoisomer not certain

{"columns": ["COMPOUND", "LC retention time (min)"],
 "data": [
  ["O=CNC1CCCCC1 [N-Cyclohexylformamide]", 1.2],
  ["NC(N)=NCCCC(N)C(=O)NCC(=O)O (configuration not stated)", 9.85],
  ["O=C1CC2(CCCC2)CC(=O)N1CCNCC1COc2ccccc2O1 (configuration not stated)", 1.8],
  ["CCCC(=O)NCC(=O)O", 3.73],
  ["COc1cccc(C(=O)O)c1N", 1.27],
  ["O=P(O)(O)OCC1OC(OC2OC(CO)C(O)C(O)C2O)C(O)C(O)C1O (configuration not stated) [Trehalose-6-phosphate]", 9.72],
  ["CCc1nn(CCCN2CCN(c3cccc(Cl)c3)CC2)c(=O)n1CCOc1ccccc1", 1.88],
  ["COc1cc(C)nc(-n2nc(C)cc2OC)n1 [Mepirizole]", 1.03],
  ["NC(=O)OCC(COC(N)=O)c1ccccc1 [Felbamate]", 1.2],
  ["Cc1cccc(C)c1NC(=O)C1CCCCN1C (configuration not stated) [Mepivacaine]", 2.96],
  ["CCC1=CC2CN(C1)Cc1c([nH]c3ccccc13)C(C(=O)OC)(c1cc3c(cc1OC)N(C)C1C(O)(C(=O)OC)C(OC(C)=O)C4(CC)C=CCN5CCC31C54)C2 (configuration not stated)", 4.76],
  ["O=C(O)Cc1c[nH]c2ccc(O)cc12 [5-Hydroxy-3-indoleacetic acid]", 1.78],
  ["O=C1CCC(=O)CC1", 1.15],
  ["COC1C(O)C(CO)OC1n1ccc(=O)[nH]c1=O (configuration not stated)", 2.24],
  ["Nc1nc2c(ncn2C2CC(O)C(CO)O2)c(=O)[nH]1 (configuration not stated)", 6.4],
  ["CC(=O)NC(CO)C(=O)O (configuration not stated)", 7.67],
  ["CC#CC1(O)CCC2C3CCC4=CC(=O)CCC4=C3C(c3ccc(N(C)C)cc3)CC21C (configuration not stated)", 1],
  ["NC(CS(=O)(=O)O)C(=O)O (configuration not stated)", 8.92],
  ["COc1ccc(CCN)cc1OC", 4.78],
  ["NC(=O)CCC(NC(=O)CCC(N)C(=O)O)C(=O)O (configuration not stated)", 9.55],
  ["N#CCc1c[nH]c2ccccc12", 8.02],
  ["OCc1cccnc1", 1.41],
  ["Cc1cn(C2C=CC(CO)O2)c(=O)[nH]c1=O (configuration not stated)", 1.62],
  ["NC(=O)CCC(NC(=O)C1CCCN1)C(=O)O (configuration not stated)", 8.75],
  ["C[N+](C)(C)CCOP(=O)([O-])OCC(O)CO (configuration not stated)", 8.67],
  ["CC(=O)NC(Cc1ccccc1)C(=O)O (configuration not stated)", 2.61],
  ["OC1CCCCC1O (configuration not stated)", 4.88]
]}

---

Experiment: HILIC, Waters ACQUITY UPLC BEH Amide, 100 × 2.1 mm, 1.7 µm; A: water + 0.125% formic acid + 10 mM ammonium formate; B: 5% water + 95% acetonitrile + 0.125% formic acid + 10 mM ammonium formate; gradient (min/%B) 0/100 2/100 7.7/70 9.5/40 10.25/30 12.75/100 17/100
Details: stereoisomer not certain
Hi, to clarify the labels: satisfied covers LC retention time from 2 min upward, not satisfied covers anything below 2 min.

{"columns": ["MOLECULE", "ASSIGNED CATEGORY"],
 "data": [
  ["CCOC(=O)c1cncn1C(C)c1ccccc1 (stereo unspecified) [Etomidate]", "not satisfied"],
  ["O=C(CCc1ccc(O)cc1)c1c(O)cc(O)cc1O", "not satisfied"],
  ["COc1cc2ccc(=O)oc2cc1O", "not satisfied"],
  ["CN1C(=O)CC(=O)N(c2ccccc2)c2cc(Cl)ccc21", "not satisfied"],
  ["CCOC(=O)C1C(OC(=O)c2ccccc2)CC2CCC1N2C (stereo unspecified)", "satisfied"],
  ["C#CC1(O)CCC2C3C(C)CC4=C(CCC(=O)C4)C3CCC21C (stereo unspecified)", "not satisfied"]
]}

---

Here the recorded LC retention time is given for each entry.
Assay: HILIC, Waters ACQUITY UPLC BEH Amide, 100 × 2.1 mm, 1.7 µm; A: water + 0.125% formic acid + 10 mM ammonium formate; B: 5% water + 95% acetonitrile + 0.125% formic acid + 10 mM ammonium formate; gradient (min/%B) 0/100 2/100 7.7/70 9.5/40 10.25/30 12.75/100 17/100
Details: stereoisomer not certain

{"columns": ["MOLECULE", "UNIT OF MEASURE", "LC retention time"],
 "data": [
  ["O=C(O)C(O)Cc1c[nH]c2ccccc12 (stereo unspecified) [Indolelactic acid]", "min", 2.25],
  ["CC1OC(Oc2c(-c3ccc(O)c(O)c3)oc3cc(O)cc(O)c3c2=O)C(O)C(O)C1O (stereo unspecified) [Quercetin-3-ramnoside]", "min", 4.7],
  ["NC(CO)C(=O)O (stereo unspecified) [Serine]", "min", 8.73],
  ["COC1C(CO)OC(n2ccc(=O)[nH]c2=O)C1O (stereo unspecified) [3'-O-Methyluridine]", "min", 2.42],
  ["CNCCc1cnc[nH]1 [N-alpha-methylhistamine]", "min", 7.48],
  ["O=C(O)CNC(=O)c1cccnc1 [Nicotinoylglycine]", "min", 7.08],
  ["CC1CCN(CCCC(=O)c2ccc(F)cc2)CC1 [Melperone]", "min", 2.12],
  ["CNC(CCC(=O)O)C(=O)O (stereo unspecified) [N-Methylglutamic acid]", "min", 8.32],
  ["CCCC=CC=O [2-Hexenal]", "min", 1.39],
  ["CNC(CC(C)C)C(=O)O (stereo unspecified) [N-Methylleucine]", "min", 6.45],
  ["CCCCC1=NC2(CCCC2)C(=O)N1Cc1ccc(-c2ccccc2-c2nn[nH]n2)cc1 [Irbesartan]", "min", 1.16],
  ["Cn1c[n+](C2OC(CO)C(O)C2O)c2nc(N)[nH]c(=O)c21 (stereo unspecified) [7-Methylguanosine]", "min", 7.34],
  ["CN1C(=O)CN=C(c2ccccc2F)c2cc([N+](=O)[O-])ccc21 [Flunitrazepam]", "min", 1.05],
  ["COCCOC(=O)C1=C(C)NC(C)=C(C(=O)OC(C)C)C1c1cccc([N+](=O)[O-])c1 (stereo unspecified) [Nimodipine]", "min", 0.94],
  ["COc1ccc2c(c1)c(CC(=O)O)c(C)n2C(=O)c1ccc(Cl)cc1 [Indomethacin]", "min", 1.08],
  ["CCCC(N)C(=O)O (stereo unspecified) [Norvaline]", "min", 4.89],
  ["NCCc1cnc[nH]1 [Histamine]", "min", 8.29],
  ["CN(C)C=O [N,N-Dimethylformamide]", "min", 1.29],
  ["CCC1(O)C(=O)OCc2c1cc1n(c2=O)Cc2cc3c(CN(C)C)c(O)ccc3nc2-1 (stereo unspecified) [Topotecan]", "min", 5.72],
  ["CC(=O)NC1C(O)CC(O)(C(=O)O)OC1C(O)C(O)CO (stereo unspecified) [N-Acetylneuraminic acid]", "min", 9.26],
  ["C[C@](N)(Cc1cnc[nH]1)C(=O)O [alpha-Methylhistidine]", "min", 8.68],
  ["NC(=O)Cc1ccccc1 [2-Phenylacetamide]", "min", 1.26],
  ["Oc1cc(O)cc(O)c1 [Phloroglucinol]", "min", 1.15],
  ["CCCCCCCCCC=O [Decanal]", "min", 2.17],
  ["O=C(C=CC=Cc1ccc2c(c1)OCO2)N1CCCCC1 [Piperine]", "min", 1.1],
  ["CC(N)C(=O)O (stereo unspecified) [Alanine]", "min", 8.05]
]}
